# tested-on: human 5-HT1D receptor (Homo sapiens, UniProt P28221)
# Construct: host or cells: HEK293T
# Sequence (P28221 whole entry): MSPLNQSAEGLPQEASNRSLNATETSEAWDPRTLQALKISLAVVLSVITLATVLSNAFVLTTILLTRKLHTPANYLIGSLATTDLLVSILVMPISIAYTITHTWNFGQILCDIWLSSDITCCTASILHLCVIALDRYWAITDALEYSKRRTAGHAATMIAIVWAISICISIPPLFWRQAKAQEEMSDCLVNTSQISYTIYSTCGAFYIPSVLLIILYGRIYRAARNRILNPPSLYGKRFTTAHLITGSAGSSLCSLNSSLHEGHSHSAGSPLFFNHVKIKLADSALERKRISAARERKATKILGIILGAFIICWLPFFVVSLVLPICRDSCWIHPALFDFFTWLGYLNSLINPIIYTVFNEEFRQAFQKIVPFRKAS
# measurement-description: cAMP accumulation (LANCE Ultra TR-FRET) in HEK293T cells, WT 5-HT1D
# Type: cell-based
# experimental-parameters: 5-HT1D pEC50, WT receptor; cAMP accumulation, HEKt cells; mean ± SD
Task for the reader: assign each of the following molecules its reported pEC50.
pEC50 is a log-scale quantity: -log10 of the concentration expressed in molar.

Entry CCCN(CCC)[C@H]1CCc2c(cccc2-c2ccccc2F)C1 [(S)-DFPT] has what pEC50?
8.93

I would be grateful if you could share the reported pEC50 for CN(C)[C@H]1CCc2c(cccc2-c2ccccc2Cl)C1 [(S)-CPT] .
8.65

Entry CN(C)[C@H]1CCc2c(cccc2-c2cccn2C)C1 [(S)-NMP] : reported pEC50 = ?
8.08

Any idea what pEC50 was measured for CCCN(CCC)[C@H]1CCc2c(cccc2-c2ccccc2Cl)C1 [(S)-DCPT] ?
8.62
